Molecular target: panel of 442 kinases (Homo sapiens, UniProt Q13976)
Construct: purchased Ambit Biosciences (scanMAXX KINOMEscan)
Sequence (Q13976 whole entry): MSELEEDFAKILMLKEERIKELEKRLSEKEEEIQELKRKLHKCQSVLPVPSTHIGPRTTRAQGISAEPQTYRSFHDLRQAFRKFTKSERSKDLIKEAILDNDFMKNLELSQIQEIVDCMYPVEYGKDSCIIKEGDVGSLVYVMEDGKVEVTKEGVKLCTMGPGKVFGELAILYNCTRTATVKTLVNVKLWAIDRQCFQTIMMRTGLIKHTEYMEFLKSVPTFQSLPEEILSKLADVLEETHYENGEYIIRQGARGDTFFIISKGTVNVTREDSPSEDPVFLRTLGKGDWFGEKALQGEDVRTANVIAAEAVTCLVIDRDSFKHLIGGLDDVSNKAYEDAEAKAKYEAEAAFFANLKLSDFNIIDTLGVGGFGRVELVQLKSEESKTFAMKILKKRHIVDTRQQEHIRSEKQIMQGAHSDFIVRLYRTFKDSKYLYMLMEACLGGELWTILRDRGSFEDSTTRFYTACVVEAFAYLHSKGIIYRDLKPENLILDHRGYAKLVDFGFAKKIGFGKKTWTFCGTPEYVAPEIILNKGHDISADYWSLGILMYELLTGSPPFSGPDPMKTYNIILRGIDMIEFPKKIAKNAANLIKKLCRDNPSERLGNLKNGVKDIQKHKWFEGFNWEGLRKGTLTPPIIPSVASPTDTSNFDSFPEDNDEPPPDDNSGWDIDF
Assay: biochemical
Format: binding
Settings: kinase PRKG1; 1 µM; read-out: PRKG1 (% of control at 1 µM)

{"structure_smiles_string": "Nc1cc(C(F)(F)F)c(-c2cc(N3CCOCC3)nc(N3CCOCC3)n2)cn1", "remaining activity at 1 µM": "77%"}
{"structure_smiles_string": "Cn1c(=O)n(-c2ccc(C(C)(C)C#N)cc2)c2c3cc(-c4cnc5ccccc5c4)ccc3ncc21", "remaining activity at 1 µM": "95%"}
{"structure_smiles_string": "COc1ncc(-c2ccc3nccc(-c4ccnnc4)c3c2)cc1NS(=O)(=O)c1ccc(F)cc1F", "remaining activity at 1 µM": "100%"}
{"structure_smiles_string": "FC(F)c1nc2ccccc2n1-c1nc(N2CCOCC2)nc(N2CCOCC2)n1", "remaining activity at 1 µM": "100%"}
